Listing of recorded Ki by entry.
Tested Target: aggregates of Aβ(1-42) (Homo sapiens)
Construct: The solid forms of peptides Aβ(1-40) and Aβ(1-42) were purchased
Sequence (P05067 672-713 limits assumed): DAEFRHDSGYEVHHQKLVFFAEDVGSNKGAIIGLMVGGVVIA
Test Details: Inhibition of [125I]3 binding to aggregated Aβ(1-42) peptide in solution
Assay Conditions: 25° C.; mean±SEM of three independent experiments; read-out: Inhibition constants (Ki) on ligand binding to aggregates of Aβ(1-42) vs [^125I]3

{"columns": ["Compound", "Reading Unit", "Inequality Symbol", "Ki"],
 "data": [
  ["O=C(O)c1cc(/N=N/c2ccc(-c3ccc(/N=N/c4ccc(O)c(C(=O)O)c4)cc3)cc2)ccc1O [Chrysamine G, reference compound]", "nM", ">", 2000],
  ["CN(C)c1ccc(-c2nc3ccc(I)cc3s2)cc1", "nM", "=", 2.2],
  ["CN1CCN(c2ccc(-c3nc4ccc(I)cc4s3)cc2)CC1", "nM", "=", 6.4],
  ["CN1CCN(c2ccc(-c3nc4ccc(Br)cc4s3)cc2)CC1", "nM", "=", 5],
  ["CN(C)c1ccc(-c2nc3ccc(Br)cc3s2)cc1", "nM", "=", 0.8]
]}

Recorded values, source patent US20040131545A1.
